Hello, the source for this data is paper PMC12392461, in case you need it.

System: ERα
Assay: Literature ERα reporter gene assays (comparison)
Assay type: cell-based
Conditions: Atlantic cod estrogen receptor; ref Goksøyr et al 2024
observed_property: REPBPA

compound	test_system	observed_measurement
Oc1ccc(C(c2ccc(O)cc2)(C(F)(F)F)C(F)(F)F)cc1	ERα	8.26E+00
CC(C)(c1ccc(O)cc1)c1ccc(O)cc1 [BPA, 4,4'-(Propane-2,2-diyl)diphenol, reference compound]	ERα	1.00E+00
Oc1ccc(Cc2ccc(O)cc2)cc1 [BPF, Bis(4-hydroxyphenyl)methane]	ERα	5.00E-01
CCC(C)(c1ccc(O)cc1)c1ccc(O)cc1	ERα	1.19E+00
O=S(=O)(c1ccc(O)cc1)c1ccc(O)cc1	ERα	2.28E-02

----------
The entries below are paired with their reported IC10, median.
Tested on: HEK293H, HEK293T, H4IIe, MCF7 and SH-SY5Y cells
Settings: median cytotoxicity over all cell lines

molecule	IC10, median (µM)
Oc1ccc(Cc2ccc(O)cc2)cc1 [BPF, Bis(4-hydroxyphenyl)methane]	409
Cc1ccc(S(=O)(=O)NC(=O)Nc2ccc(Cc3ccc(NC(=O)NS(=O)(=O)c4ccc(C)cc4)cc3)cc2)cc1	31
CC1(C)[C@H](O)C(C)(C)[C@H]1O	8940
CC(C)(c1ccc(O)c(-c2ccccc2)c1)c1ccc(O)c(-c2ccccc2)c1 [BPPH, 2,2-Bis(2-hydroxy-5-biphenylyl)propane]	8.02
CC(C)(c1ccc(OCC2CO2)cc1)c1ccc(OCC2CO2)cc1 (centres unmarked)	38.5

----------
System: HEK293H (PPARγ)
Details: cytotoxicity, HEK293 (PPARγ assay cells)
If the reported IC10, HEK293, PPARγ equals or exceeds 20 µM, assign criterion met. If not, assign criterion not met.

compound	answer_label
Cc1ccc(S(=O)(=O)NC(=O)Nc2cccc(OS(=O)(=O)c3ccc(C)cc3)c2)cc1 [Pergafast]	criterion not met
CC(c1ccc(O)cc1)c1ccc(O)cc1 [BPE, 4,4′-Ethylidenbisphenol]	criterion met
Oc1ccc(C2(c3ccc(O)cc3)CCCCC2)cc1 [BPZ, 1,1'-Bis(4-hydroxyphenyl)cyclohexane]	criterion not met
CC(c1ccccc1)(c1ccc(O)cc1)c1ccc(O)cc1 [BPAP, 4,4'-(1-Phenylethylidene)bisphenol]	criterion not met
O=C(OCc1ccccc1)c1ccc(O)cc1 [BzPB, Benzyl 4-hydroxybenzoate]	criterion met
Oc1ccc(Cc2ccc(O)cc2)cc1 [BPF, Bis(4-hydroxyphenyl)methane]	criterion met
Cc1ccc(S(=O)(=O)NC(=O)Nc2ccc(Cc3ccc(NC(=O)NS(=O)(=O)c4ccc(C)cc4)cc3)cc2)cc1 [BTUM]	criterion met
CC(C)(c1ccc(O)c(-c2ccccc2)c1)c1ccc(O)c(-c2ccccc2)c1 [BPPH, 2,2-Bis(2-hydroxy-5-biphenylyl)propane]	criterion not met
Oc1ccc(Sc2ccc(O)cc2)cc1 [BPT, 4,4'-Thiodiphenol]	criterion not met
O=S(=O)(c1ccc(O)cc1)c1ccc(OCc2ccccc2)cc1 [BPS-MPE, 4-[4-(benzyloxy)benzenesulfonyl]phenol]	criterion met
CC(C)c1cc(C(C)(C)c2ccc(O)c(C(C)C)c2)ccc1O [BPG]	criterion not met

----------
System: Mitochondrial Membrane Potential
Assay: cells
Conditions: against experimental cytotoxicity
The entries below are paired with their reported Specificity ratio (SRcytotoxicity) SRMMP.

compound	test_system	Specificity ratio (SRcytotoxicity) SRMMP
O=C(OCc1ccccc1)c1ccc(O)cc1 [BzPB, Benzyl 4-hydroxybenzoate]	Mitochondrial Membrane Potential	12.18
CC(C)c1cc(C(C)(C)c2ccc(O)c(C(C)C)c2)ccc1O	Mitochondrial Membrane Potential	2.79
CCC(C)(c1ccc(O)cc1)c1ccc(O)cc1	Mitochondrial Membrane Potential	2.14
CC(C)Oc1ccc(S(=O)(=O)c2ccc(O)cc2)cc1	Mitochondrial Membrane Potential	41.11
CC(C)(c1ccc(O)c(-c2ccccc2)c1)c1ccc(O)c(-c2ccccc2)c1 [BPPH, 2,2-Bis(2-hydroxy-5-biphenylyl)propane]	Mitochondrial Membrane Potential	3.95
O=S(=O)(c1ccc(O)cc1)c1ccc(OCc2ccccc2)cc1 [BPS-MPE, 4-[4-(benzyloxy)benzenesulfonyl]phenol]	Mitochondrial Membrane Potential	21.99
